Data origin: ChEMBL document CHEMBL1155459

Each entry below carries its recorded inhibition.
test: Inhibition of Plasmodium falciparum falcipain-2 after 12 hrs by fluorescence spectroscopy-based on-bead assay
Set-up: concentration or dose not given beside the values
test_conditions: concentration not given here
Peptide text beside a SMILES is read from it.
assay_endpoint: inhibition (%)

INSERT INTO results (molecule, assay_endpoint, recorded_result) VALUES
  ('CC(C)C[C@H](NC(=O)[C@H](CCC(N)=O)NC(=O)/C=C/C(=O)N[C@@H](C)C(=O)NCC(=O)N[C@@H](Cc1ccccc1)C(=O)O)C(=O)N[C@@H](CC(C)C)C(=O)N[C@H](C(N)=O)C(C)C (HELM PEPTIDE1{[C[C@H](NC(=O)/C=C/C(=O)[*:2])C(=O)NCC(=O)N[C@@H](Cc1ccccc1)C(=O)O].Q.L.L.V.[am]}$$$$V2.0)', 'inhibition', 55),
  ('CC(C)[C@H](NC(=O)[C@H](C)NC(=O)[C@@H](NC(=O)[C@H](Cc1ccccc1)NC(=O)/C=C/C(=O)NCC(=O)NCC(=O)N[C@@H](Cc1ccccc1)C(=O)O)c1ccccc1)C(N)=O (HELM PEPTIDE1{[O=C(/C=C/C(=O)[*:2])NCC(=O)NCC(=O)N[C@@H](Cc1ccccc1)C(=O)O].F.[Phg].A.V.[am]}$$$$V2.0)', 'inhibition', 62),
  ('CC(=O)NC[C@H](NC(=O)/C=C/C(=O)N[C@@H](C)C(=O)NCC(=O)N[C@@H](Cc1ccccc1)C(=O)O)C(=O)N[C@H](C(=O)N[C@@H](CC(C)C)C(=O)N[C@H](C(N)=O)C(C)C)c1ccccc1 (HELM PEPTIDE1{[C[C@H](NC(=O)/C=C/C(=O)[*:2])C(=O)NCC(=O)N[C@@H](Cc1ccccc1)C(=O)O].[O=C([C@H](CN[*:3])N[*:1])[*:2]].[Phg].L.V.[am]}|PEPTIDE2{[ac]}$PEPTIDE1,PEPTIDE2,2:R3-1:R2$$$V2.0)', 'inhibition', 52);
